Target: Tat-TAR complex (recombinant Tat, synthetic TAR duplex) (Human immunodeficiency virus type 1 group M subtype B)
Construct: purchased Medical Research Council (MRC), Cambridge, U.K
Sequence (P04608 whole entry, one chain of several): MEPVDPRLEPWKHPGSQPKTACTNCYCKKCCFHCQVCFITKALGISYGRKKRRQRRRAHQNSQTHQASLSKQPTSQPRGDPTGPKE
Assay: competition Tat-TAR gel-shift assay
Type: binding, HIV-1
Measured quantity: pIC50
Quick note: pIC50 means taking -log10 of the concentration in moles per liter.

In plain terms, CC(=O)CC(=O)Nc1ccc(/C=C/c2ccc(N3N=C(C)CC3=O)cc2S(=O)(=O)O)c(S(=O)(=O)O)c1 [Example 2] has a documented pIC50 of 7.70

----------
Assay: maximal tolerated dose (MTD) determination in mice
Type: in vivo
Settings: female, Balb/c AnCbif Tif, mouse, in vivo, iv
Measured quantity: MTD at 7 days

In plain terms, CC(=O)CC(=O)Nc1ccc(/C=C/c2ccc(N3N=C(C)CC3=O)cc2S(=O)(=O)O)c(S(=O)(=O)O)c1 has a documented MTD at 7 days of > 50 mg/kg
